src = patent US20230257373A1

STUDY_TARGET: LuxR (Vibrio harveyi, UniProt P21308)
Sequence (P21308 whole entry): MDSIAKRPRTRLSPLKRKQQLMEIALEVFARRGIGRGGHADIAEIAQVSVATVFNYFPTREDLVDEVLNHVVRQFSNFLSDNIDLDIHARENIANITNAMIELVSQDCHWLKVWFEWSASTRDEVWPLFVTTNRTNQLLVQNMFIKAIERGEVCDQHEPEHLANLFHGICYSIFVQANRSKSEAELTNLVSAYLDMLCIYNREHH
PROTOCOL_TEXT: ITC analysis of LuxR interaction with inhibitors
STUDY_CONDITIONS: 25° C.
MEASUREMENT_KIND: Kd (nM)
Field format: number, assumed nM, no unit text.

Lab book: Kd of O=S(=O)(c1cccs1)n1ccc(-c2ccccc2)n1 [Compound 10B] noted as 513

----------
Tested on: PluxC-gfp reporter in V. parahaemolyticus
PROTOCOL_TEXT: PluxC-gfp reporter in V. parahaemolyticus strains
STUDY_CONDITIONS: Vibrio parahaemolyticus, read-out: Inhibition (IC50) of the PluxC-gfp reporter, Vpara RIMD 2210633
Listed below: log10 of IC50 values for each entry.
Values are log10 of IC50 in nM.

{"COMPOUND": "O=S(=O)(c1ccc(Br)s1)n1cccc1 [Compound 3A]", "STUDY_TARGET": "PluxC-gfp reporter in V. parahaemolyticus", "RECORDED_RESULT": 3.41}
{"COMPOUND": "O=S(=O)(c1ccccc1)n1cccn1 [Compound 1E, 1-(phenylsulfonyl)-1H-pyrazole]", "STUDY_TARGET": "PluxC-gfp reporter in V. parahaemolyticus", "RECORDED_RESULT": 4.04}
{"COMPOUND": "O=S(=O)(c1cccs1)n1cccc1 [Compound 3B, 1-(thiophen-2-ylsulfonyl)-1H-pyrrole]", "STUDY_TARGET": "PluxC-gfp reporter in V. parahaemolyticus", "RECORDED_RESULT": 3.40}
{"COMPOUND": "O=S(=O)(c1ccc(Br)s1)n1ccc(-c2ccccc2)n1 [Compound 10A]", "STUDY_TARGET": "PluxC-gfp reporter in V. parahaemolyticus", "RECORDED_RESULT": 2.80}
{"COMPOUND": "O=S(=O)(c1ccc(Br)s1)n1cccn1 [Qstatin, reference compound]", "STUDY_TARGET": "PluxC-gfp reporter in V. parahaemolyticus", "RECORDED_RESULT": 3.36}
{"COMPOUND": "Cc1ccn(S(=O)(=O)c2ccc(Cl)s2)n1 [Compound 8C]", "STUDY_TARGET": "PluxC-gfp reporter in V. parahaemolyticus", "RECORDED_RESULT": 3.58}

Lab book: log10 of IC50 of O=C(c1ccc(COc2ccc(Cl)cc2)o1)N1CCN(Cc2ccc3c(c2)OCO3)CC1 [P0053 I18] noted as 3.45

Lab book: log10 of IC50 of O=S(=O)(c1ccc(Cl)s1)n1ccc(-c2ccccc2)n1 [Compound 10C] noted as 2.83

Lab book: log10 of IC50 of Cc1ccn(S(=O)(=O)c2ccc(Br)s2)n1 [Compound 8A] noted as 3.30

Lab book: log10 of IC50 of O=S(=O)(c1cccs1)n1ccc(-c2ccccc2)n1 [Compound 10B] noted as 2.23

Lab book: log10 of IC50 of Cc1ccn(S(=O)(=O)c2cccs2)n1 [Compound 8B] noted as 3.86

Lab book: log10 of IC50 of O=S(=O)(c1cccs1)n1cccn1 [Compound 1B, 1-(thiophen-2-ylsulfonyl)-1H-pyrazole] noted as 4.20

Lab book: log10 of IC50 of O=S(=O)(c1ccc(Cl)s1)n1cccc1 [Compound 3C] noted as 3.30

Lab book: log10 of IC50 of O=S(=O)(c1ccc(Cl)s1)n1cccn1 [Compound 1C] noted as 3.23

----------
System: PluxC-gfp reporter in V. vulnificus
PROTOCOL_TEXT: PluxC-gfp reporter in V. vulnificus strains
STUDY_CONDITIONS: Vibrio vulnificus, read-out: Inhibition (IC50) of the PluxC-gfp reporter, Vvul YJ016
Listed below: pIC50 values for each entry.
Bear in mind: pIC50 is minus log10 of a mol/L concentration; give just that figure.

Worked examples, 3 compounds total:
{"COMPOUND": "O=S(=O)(c1cccs1)n1cccc1 [Compound 3B, 1-(thiophen-2-ylsulfonyl)-1H-pyrrole]", "pIC50": 5.82}
{"COMPOUND": "Cc1ccn(S(=O)(=O)c2ccc(Cl)s2)n1 [Compound 8C]", "pIC50": 6.00}
{"COMPOUND": "Cc1ccn(S(=O)(=O)c2cccs2)n1 [Compound 8B]", "pIC50": 5.52}

Lab book: pIC50 of Cc1ccn(S(=O)(=O)c2ccc(Br)s2)n1 [Compound 8A] noted as 6.30

Lab book: pIC50 of O=S(=O)(c1cccs1)n1cccn1 [Compound 1B, 1-(thiophen-2-ylsulfonyl)-1H-pyrazole] noted as 5.19

Lab book: pIC50 of O=C(c1ccc(COc2ccc(Cl)cc2)o1)N1CCN(Cc2ccc3c(c2)OCO3)CC1 [P0053 I18] noted as 5.49

Lab book: pIC50 of O=S(=O)(c1ccc(Br)s1)n1ccc(-c2ccccc2)n1 [Compound 10A] noted as 8.23

Lab book: pIC50 of O=S(=O)(c1ccc(Cl)s1)n1cccn1 [Compound 1C] noted as 6.10

Lab book: pIC50 of O=S(=O)(c1ccccc1)n1cccn1 [Compound 1E, 1-(phenylsulfonyl)-1H-pyrazole] noted as 5.34

----------
Tested on: PluxC-gfp reporter in V. campbellii
PROTOCOL_TEXT: PluxC-gfp reporter in V. campbellii strains
STUDY_CONDITIONS: Vibrio campbellii, read-out: Inhibition (IC50) of the PluxC-gfp reporter, Vcamp BB120
MEASUREMENT_KIND: IC50 (µM)
Field format: number, assumed µM, no unit text.

{"SMILES_CODE": "O=S(=O)(c1ccc(Cl)s1)n1cccn1", "STUDY_TARGET": "PluxC-gfp reporter in V. campbellii", "IC50 (µM)": 3.3}
{"SMILES_CODE": "O=S(=O)(c1ccccc1)n1cccn1", "STUDY_TARGET": "PluxC-gfp reporter in V. campbellii", "IC50 (µM)": 51.4}
{"SMILES_CODE": "O=S(=O)(c1ccc(Cl)s1)n1cccc1", "STUDY_TARGET": "PluxC-gfp reporter in V. campbellii", "IC50 (µM)": 8.3}

Lab book: IC50 of `Cc1ccn(S(=O)(=O)c2ccc(Cl)s2)n1` noted as 6.7

Lab book: IC50 of `O=C(c1ccc(COc2ccc(Cl)cc2)o1)N1CCN(Cc2ccc3c(c2)OCO3)CC1` noted as 2

Lab book: IC50 of `O=S(=O)(c1cccs1)n1cccc1` noted as 18.9

Lab book: IC50 of `O=S(=O)(c1cccs1)n1cccn1` noted as 52.6

Lab book: IC50 of `O=S(=O)(c1ccc(Br)s1)n1cccc1` noted as 15
